The measurements presented in this section are drawn from patent US9273058B2.

# assayedSystem: CK1ε (Homo sapiens)
# Sequence (P49674 whole entry): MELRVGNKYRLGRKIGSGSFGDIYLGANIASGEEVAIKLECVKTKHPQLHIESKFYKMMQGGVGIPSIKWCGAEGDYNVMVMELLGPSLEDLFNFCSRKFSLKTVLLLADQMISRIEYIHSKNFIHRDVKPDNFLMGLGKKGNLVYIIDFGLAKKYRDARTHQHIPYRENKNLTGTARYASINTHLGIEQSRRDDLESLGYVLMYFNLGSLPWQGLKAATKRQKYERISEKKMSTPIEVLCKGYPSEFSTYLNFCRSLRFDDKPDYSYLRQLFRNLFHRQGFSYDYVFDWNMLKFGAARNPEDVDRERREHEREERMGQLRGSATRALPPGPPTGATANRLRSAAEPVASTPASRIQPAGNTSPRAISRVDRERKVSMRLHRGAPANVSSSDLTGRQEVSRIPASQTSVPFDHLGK
# assayNotes: CK1ε kinase assay (Caliper LabChip electrophoretic separation of fluoresceinated peptide substrate and product)
# Format: biochemical
# measurementParameters: 200 pM CK1ε, 50 μM ATP, 1.5 μM peptide, 22 hours at room temperature; read-out: CK1ε IC50 range
Measured IC50 accompanies every entry in the list below.

N#Cc1ccc(O[C@H]2C[C@H](NC(=O)N3CCn4nc(-c5cccc(Cl)c5)c(C(N)=O)c4C3)C2)cc1 [Compound 267] = 0.01 to 10 nM
NC(=O)c1c(-c2cccc(F)c2)nn2c1CN(C(=O)Nc1ccc(OC(F)F)cc1)CC2 [Compound 89] = 10 to 100 nM
CC(C)(C)NC(=O)N1CCn2nc(-c3cc4ccccc4nc3Cl)c(C(N)=O)c2C1 [Compound 140] = 100 to 2000 nM
CO[C@H]1C[C@H](NC(=O)N2CCn3nc(-c4ccc(Cl)c(Cl)c4)c(C(N)=O)c3C2)C1 [Compound 204] = 0.01 to 10 nM
CC1CN(C(=O)NC(C)(C)C)Cc2c(C(N)=O)c(-c3ccc(Cl)c(Cl)c3)nn21 (stereo not drawn) [Compound A33] = 0.01 to 10 nM
CC(C)(C)NC(=O)N1CCn2nc(-c3ccc(F)c(Cl)c3)c(C(N)=O)c2C1 [Compound 104] = 0.01 to 10 nM

Suppose we examine the compound NC(=O)c1c(-c2ccc(Cl)c(Cl)c2)nn2c1CN(C(=O)NC1CC3(C1)CC3(F)F)CC2 (single isomer, unassigned) [Compound 324] ; what IC50 value has been reported?
0.01 to 10 nM

Would you kindly repeat that for CC(C)(C)NC(=O)N1CCn2nc(-c3cc(F)cc(C(F)(F)F)c3)c(C(N)=O)c2C1 [Compound 155] ?
100 to 2000 nM

Thanks! And N#Cc1ccc(O[C@H]2C[C@H](NC(=O)N3CCn4nc(-c5ccc(F)c(Cl)c5)c(C(N)=O)c4C3)C2)cc1 [Compound 266] ?
0.01 to 10 nM

Consider next the compound CC(C)(C)NC(=O)N1Cc2c(C(N)=O)c(-c3ccc(Cl)c(Cl)c3)nn2C(C(C)(C)O)C1 (stereo not drawn) [Compound A38] in the same way.
0.01 to 10 nM

Next compound: CC(C)(C)NC(=O)N1CCn2nc(-c3ccc(F)c(F)c3)c(C(N)=O)c2C1 [Compound 106]
10 to 100 nM

Input CC(C)(COC(F)(F)F)NC(=O)N1CCn2nc(-c3ccc(F)c(Cl)c3)c(C(N)=O)c2C1 [Compound 212]
0.01 to 10 nM

Entry NC(=O)c1c(-c2ccc(Cl)c(Cl)c2)nn2c1CN(C(=O)NC13CCC(c4ccc(F)cc4)(CC1)CC3)CC2 [Compound A89] please
0.01 to 10 nM

Same for CC(C)(NC(=O)N1CCn2nc(-c3cccc(F)c3)c(C(N)=O)c2C1)C(F)(F)F [Compound 13]
10 to 100 nM

Then what about the compound NC(=O)c1c(-c2cccc(Cl)c2)nn2c1CN(C(=O)NC13CCC(C(F)F)(CC1)CC3)CC2 [Compound A77] ?
0.01 to 10 nM

// next record NC(=O)c1c(-c2ccc(F)c(Cl)c2)nn2c1CN(C(=O)NC13CCC(c4ccccc4)(CC1)CC3)CC2 [Compound A53]
0.01 to 10 nM

And the next one, CC1CC(NC(=O)N2CCn3nc(-c4ccc(F)c(Cl)c4)c(C(N)=O)c3C2)C1 (single isomer, unassigned) [Compound 246] ?
0.01 to 10 nM
